System: E. coli TESEC Mtb Asd
TEST DETAILS: growth (OD600 after 10 h); higher = more growth (less inhibition)
CONDITIONS: arabinose induction (level): Low; compound 0.1 mM; raw OD600 reference: median of DMSO wells 0.417, cell-free background 0.041
Counter-ions that a name gives are not always drawn.
Decision: growth compared against 0.3; not below it gives Fulfilled, below it gives Not fulfilled.

Solved cases (4 shown):
COMPOUND: OC(CCN1CCCCC1)(c1ccccc1)c1ccccc1 [Pridinol methanesulfonate salt]
ANSWER LABEL: Fulfilled
//
COMPOUND: Nc1ccc(C(=O)O)c(O)c1
ANSWER LABEL: Fulfilled
//
COMPOUND: COc1cc(OC)c(C(=O)CCCN2CCCC2)c(OC)c1 [Buflomedil hydrochloride]
ANSWER LABEL: Fulfilled
//
COMPOUND: O=C(O)c1cccnc1Nc1cccc(C(F)(F)F)c1
ANSWER LABEL: Not fulfilled

In plain terms: is recorded growth at least 0.3 for NCCc1cc[nH]n1 [Betazole hydrochloride] ?
Fulfilled

Entry to check: CCN(CC)Cc1cc(Nc2ccnc3cc(Cl)ccc23)ccc1O [Amodiaquin dihydrochloride dihydrate]
Fulfilled

Entry to check: Nc1c2c(nc3ccccc13)CCCC2 [Tacrine hydrochloride]
Fulfilled

Entry to check: COc1ccc(-c2cc(=O)c3c(O)cc(O[C@@H]4O[C@H](CO[C@@H]5O[C@@H](C)[C@H](O)[C@@H](O)[C@H]5O)[C@@H](O)[C@H](O)[C@H]4O)cc3o2)cc1O
Fulfilled

Entry to check: COc1cccc2c1C(=O)c1c(O)c3c(c(O)c1C2=O)C[C@@](O)(C(=O)CO)C[C@@H]3O[C@H]1C[C@H](N)[C@@H](O)[C@H](C)O1 [Epirubicin hydrochloride]
Not fulfilled

Entry to check: CCC(=O)O[C@]1(C(=O)CCl)[C@@H](C)C[C@H]2[C@@H]3CCC4=CC(=O)C=C[C@]4(C)[C@@]3(F)[C@@H](O)C[C@@]21C [Clobetasol propionate]
Not fulfilled

Entry to check: N=C(N)NS(=O)(=O)c1ccc(N)cc1
Fulfilled

Entry to check: CSc1ccc2c(c1)C(N1CCN(C)CC1)Cc1ccccc1S2 (stereo not given) [Methiothepin maleate]
Not fulfilled

Entry to check: CN[C@@H]1[C@H](O[C@H]2[C@H](O[C@H]3[C@H](O)[C@@H](O)[C@H](N=C(N)N)[C@@H](O)[C@@H]3N=C(N)N)O[C@@H](C)[C@]2(O)C=O)O[C@@H](CO)[C@H](O)[C@H]1O [Streptomycin sulfate]
Not fulfilled

Entry to check: C[C@@H]1C[C@H]2[C@@H]3CCC4=CC(=O)C=C[C@]4(C)[C@@]3(Cl)[C@@H](O)C[C@]2(C)[C@@]1(OC(=O)c1ccco1)C(=O)CCl [Mometasone furoate]
Fulfilled

Entry to check: C[C@]12CC[C@@H]3c4ccc(O)cc4C[C@@H](CCCCCCCCC[S+]([O-])CCCC(F)(F)C(F)(F)F)[C@H]3[C@@H]1CC[C@@H]2O (stereo not given in full)
Fulfilled

* * *

Test system: E. coli TESEC Mtb Alr
TEST DETAILS: growth (OD600 after 10 h); higher = more growth (less inhibition)
CONDITIONS: arabinose 100000 nM; compound 0.1 mM; raw OD600 reference: median of DMSO wells 0.201, cell-free background 0.041
Structures can show the parent of a compound that is named as a salt.
ASSAY METRIC: growth

MOLECULE: Cc1cc(C)nc(NS(=O)(=O)c2ccc(N)cc2)n1 [Sulfamethazine sodium salt]
growth: 0.215

If you can, please state the reported growth value of CC(C)NC(=N)NC(=N)Nc1ccc(Cl)cc1 [Proguanil hydrochloride] .
0.176

Entry to check: CC1(C)NC(=O)N(c2ccc([N+](=O)[O-])c(C(F)(F)F)c2)C1=O [Nilutamide]
0.189

Entry to check: COC(=O)C1=C(C#N)NC(C)=C(C(=O)OC(C)C)C1c1cccc([N+](=O)[O-])c1 (centres undefined)
0.164

* * *

Tested on: E. coli TESEC Mtb Alr
TEST DETAILS: growth (OD600 after 10 h); higher = more growth (less inhibition)
CONDITIONS: arabinose 10000 nM; compound 0.1 mM; raw OD600 reference: median of DMSO wells 0.264, cell-free background 0.041
Where a name gives a salt, the structure may show the parent alone.
// reported growth per item

// worked examples, growth included
COMPOUND: CC(C)COCC(CN(Cc1ccccc1)c1ccccc1)N1CCCC1 (centres undefined) [Bepridil hydrochloride]
EXPERIMENTAL SYSTEM: E. coli TESEC Mtb Alr
ASSAY METRIC: growth
ASSAY VALUE: 0.0394
//
COMPOUND: Nc1nc(Cl)nc2c1ncn2[C@H]1C[C@H](O)[C@@H](CO)O1
EXPERIMENTAL SYSTEM: E. coli TESEC Mtb Alr
ASSAY METRIC: growth
ASSAY VALUE: 0.0701
//
COMPOUND: CC/C(=C(/CC)c1ccc(O)cc1)c1ccc(O)cc1
EXPERIMENTAL SYSTEM: E. coli TESEC Mtb Alr
ASSAY METRIC: growth
ASSAY VALUE: 0.0413
//
COMPOUND: CN(C)CCc1c[nH]c2ccc(Cn3cncn3)cc12 [Rizatriptan benzoate]
EXPERIMENTAL SYSTEM: E. coli TESEC Mtb Alr
ASSAY METRIC: growth
ASSAY VALUE: 0.258
//
COMPOUND: Cc1ccc(N(CC2=NCCN2)c2cccc(O)c2)cc1 [Phentolamine hydrochloride]
EXPERIMENTAL SYSTEM: E. coli TESEC Mtb Alr
ASSAY METRIC: growth
ASSAY VALUE: 0.27
//
COMPOUND: COC(=O)N/N=C/c1c[n+]([O-])c2ccccc2[n+]1[O-]
EXPERIMENTAL SYSTEM: E. coli TESEC Mtb Alr
ASSAY METRIC: growth
ASSAY VALUE: 0.149
//
COMPOUND: CC(=O)Nc1ccc(OCC(O)CNC(C)C)cc1 (centres undefined)
EXPERIMENTAL SYSTEM: E. coli TESEC Mtb Alr
ASSAY METRIC: growth
ASSAY VALUE: 0.257
//
COMPOUND: O=C(O)[C@H]1/C(=C/CO)O[C@@H]2CC(=O)N21 [Clavulanate potassium salt]
EXPERIMENTAL SYSTEM: E. coli TESEC Mtb Alr
ASSAY METRIC: growth
ASSAY VALUE: 0.0477

# evaluate next
What is its growth for E. coli TESEC Mtb Alr? Entry: CCCCC1C(=O)N(c2ccccc2)N(c2ccccc2)C1=O
0.234

* * *

Test system: E. coli TESEC Mtb DapB
TEST DETAILS: growth (OD600 after 10 h); higher = more growth (less inhibition)
CONDITIONS: arabinose induction (level): Low; compound 0.1 mM; raw OD600 reference: median of DMSO wells 0.227, cell-free background 0.041
Where a name gives a salt, the structure may show the parent alone.
// reported growth per item

// worked examples, growth included
MOLECULE: C=CCSCC1Nc2cc(Cl)c(S(N)(=O)=O)cc2S(=O)(=O)N1 (configuration not stated) [Althiazide]
ASSAY METRIC: growth
ASSAY VALUE: 0.242

MOLECULE: C[C@H](CCC(=O)O)[C@H]1CC[C@H]2[C@@H]3CC[C@@H]4C[C@H](O)CC[C@]4(C)[C@H]3CC[C@]12C [Lithocholic acid]
ASSAY METRIC: growth
ASSAY VALUE: 0.229

MOLECULE: CN(C)c1ccc(O)c2c1C[C@H]1C[C@H]3[C@H](N(C)C)C(=O)C(C(N)=O)=C(O)[C@@]3(O)C(=O)C1=C2O [Minocycline hydrochloride]
ASSAY METRIC: growth
ASSAY VALUE: 0.0519

MOLECULE: CCN(CC)C(=O)c1ccc(O)c(OC)c1 [Ethamivan]
ASSAY METRIC: growth
ASSAY VALUE: 0.225

MOLECULE: Cc1cccn2c(=O)c(-c3nnn[nH]3)cnc12 [Pemirolast potassium]
ASSAY METRIC: growth
ASSAY VALUE: 0.223

MOLECULE: COc1ccc(-c2ccc(=N)n(CCCC(=O)O)n2)cc1 [Gabazine bromide]
ASSAY METRIC: growth
ASSAY VALUE: 0.208

MOLECULE: C=CC1=C(C(=O)O)N2C(=O)[C@@H](NC(=O)/C(=N\OCC(=O)O)c3csc(N)n3)[C@H]2SC1 [Cefixime]
ASSAY METRIC: growth
ASSAY VALUE: 0.0479

MOLECULE: CC(C)[C@H](N)C(=O)OCCOCn1cnc2c(=O)nc(N)[nH]c21 [Valacyclovir hydrochloride]
ASSAY METRIC: growth
ASSAY VALUE: 0.186

# evaluate next
If you can, please state the reported growth value of CCN(CC)CC(=O)Nc1c(C)cccc1C [Lidocaine hydrochloride] .
0.235
